What follows is a record of IC50 for PI3K β (Homo sapiens, UniProt P42338).

Example entries and their recorded answers appear below.
{"Compound": "Cc1ccccc1-n1c(Cn2nc(-c3cccc(O)c3)c3c(N)ncnc32)cc2cccc(F)c2c1=O", "Tgt": "PI3K β (Homo sapiens, UniProt P42338)", "IC50": "> 10 µM"}
{"Compound": "Cc1cccc2cc(Cn3nc(-c4ccc5nc(N)sc5c4)c4c(N)ncnc43)n(-c3ccccc3)c(=O)c12", "Tgt": "PI3K β (Homo sapiens, UniProt P42338)", "IC50": "< 1 µM"}
{"Compound": "Cc1cccc2cc(C(C)Nc3ncnc4[nH]cnc34)n(-c3ccccc3)c(=O)c12 (stereo not shown)", "Tgt": "PI3K β (Homo sapiens, UniProt P42338)", "IC50": "< 10 µM"}
{"Compound": "Cc1ccccc1-n1c(Cn2nc(CN3CCOCC3)c3c(N)ncnc32)cc2cccc(C)c2c1=O", "Tgt": "PI3K β (Homo sapiens, UniProt P42338)", "IC50": "> 10 µM"}
{"Compound": "Cc1cccc2cc(Cn3nc(-c4cccc(O)c4)c4c(N)ncnc43)n(C3CCC3)c(=O)c12", "Tgt": "PI3K β (Homo sapiens, UniProt P42338)", "IC50": "< 10 µM"}

Hi there! I need IC50 for each item below, if you can.
1. Cc1cccc2cc([C@H](C)Nc3nc(N)ncc3F)n(-c3ccccc3)c(=O)c12
2. Cc1cccc2cc(Cn3nc(-c4ccc5sc(N)nc5c4)c4c(N)ncnc43)n(-c3ccccc3)c(=O)c12

## Output
1: > 10 µM; 2: < 1 µM
